- Test system: BRN2 (POU3F2), luciferase reporter assay
- ASSAY_REMARKS: cells
- MEASUREMENT_PARAMETERS: read-out: % of Inhibition (Luciferase assay) / 30µM
QUANTITY: inhibition at 30 µM (%)
The reply should be a number in %, with the unit left off.

Record for Oc1ccc(/C=N/Nc2nc3ccccc3[nH]2)c(O)c1O [B-43] under target or system BRN2 (POU3F2), luciferase reporter assay: inhibition at 30 µM reported as -1.16

Record for c1ccc2c(c1)CC/C2=N/Nc1ccc2ccccc2n1 [B-39] under target or system BRN2 (POU3F2), luciferase reporter assay: inhibition at 30 µM reported as 99.9

Record for C/C(=N/Nc1nc2ccccc2[nH]1)c1ccccc1O [B-42] under target or system BRN2 (POU3F2), luciferase reporter assay: inhibition at 30 µM reported as 66.8

Record for c1ccc(-c2nc(-c3cccnc3)no2)cc1 [B-27] under target or system BRN2 (POU3F2), luciferase reporter assay: inhibition at 30 µM reported as -166

Record for C[C@@H]1Cc2ccccc2N1C(=O)c1cccc2ccccc12 [B-20] under target or system BRN2 (POU3F2), luciferase reporter assay: inhibition at 30 µM reported as 35.5

Record for C/C(=N\Nc1nc2ccccc2[nH]1)c1ccc(O)cc1 [B-46] under target or system BRN2 (POU3F2), luciferase reporter assay: inhibition at 30 µM reported as 46.7

Record for O=C(Nc1ccc(F)cc1)c1ccccc1 [B-9] under target or system BRN2 (POU3F2), luciferase reporter assay: inhibition at 30 µM reported as -58.1

Record for C/C(=N\Nc1nc2ccccc2[nH]1)c1ccc2ccccc2c1O [B-45] under target or system BRN2 (POU3F2), luciferase reporter assay: inhibition at 30 µM reported as 91.8

Record for Cc1cc(C(=O)Nc2cccc(Cl)c2)c2cc(F)ccc2n1 [B-14] under target or system BRN2 (POU3F2), luciferase reporter assay: inhibition at 30 µM reported as 32

Record for Oc1c(Br)cc(Br)cc1/C=N/Nc1nc2ccccc2[nH]1 [B-53] under target or system BRN2 (POU3F2), luciferase reporter assay: inhibition at 30 µM reported as -80.2

Record for Oc1ccc2ccccc2c1/C=N/Nc1nc2ccccc2[nH]1 [B-51] under target or system BRN2 (POU3F2), luciferase reporter assay: inhibition at 30 µM reported as 76.8

----------
- System: BRN2 (POU3F2), luciferase reporter assay
- ASSAY_REMARKS: cells
- MEASUREMENT_PARAMETERS: read-out: % of Inhibition (Luciferase assay) / 30µM
QUANTITY: inhibition at 30 µM
Answer with the figure and its unit, nothing else.

inhibition at 30 µM for "Fc1ccc(Cl)cc1/C=N/Nc1nc2ccccc2s1" is 71.4%

inhibition at 30 µM for "COc1ccc(O)c(/C=N/Nc2nc3ccccc3[nH]2)c1" is 22.8%

inhibition at 30 µM for "Oc1c(Cl)cc(Cl)cc1/C=N/Nc1nc2ccccc2[nH]1" is 12.7%

inhibition at 30 µM for "Cc1cc(C)c2c(c1)/C(=N/Nc1nc3ccccc3[nH]1)CCC2" is 84.3%

inhibition at 30 µM for "c1ccc(-c2ccc(-c3nc4ccccc4[nH]3)o2)cc1" is 48%

inhibition at 30 µM for "Cn1c(-c2ccco2)nc2ccccc21" is -172%

inhibition at 30 µM for "Brc1ccc(-c2ccc(-c3nc4ccccc4[nH]3)o2)c(Br)c1" is 94%

inhibition at 30 µM for "CC/C(=N\Nc1nc2ccccc2[nH]1)c1ccc(F)cc1" is 80%

inhibition at 30 µM for "Cc1cccc(C(=O)Oc2cccc3ccccc23)c1" is -8.87%

inhibition at 30 µM for "Cn1c(-c2ccco2)nc2cc(N)ccc21" is 39%

inhibition at 30 µM for "COc1ccc(/C=N\Nc2nc3ccccc3[nH]2)cc1O" is 51%
